Assay: Unbound fraction in human plasma by HPLC/MS based equilibrium dialysis method
Type: ADME, cell-free
ATTRIBUTE MEASURED: fraction unbound

Worked cases, fraction unbound given:
Fc1ccc(CC[C@@H]2CN(Cc3c[nH]c4cc(F)ccc34)CCC2(F)F)cc1    0.004
Fc1ccc2c(CN3CCC(F)(F)[C@H](CCc4ccccc4)C3)c[nH]c2c1    0.001
Cc1ccc(CN2CCC(F)(F)[C@H](CCc3ccccc3)C2)cc1C    0.005
Fc1ccc2c(CN3CCC(F)(F)[C@H](CCc4ccccc4F)C3)c[nH]c2c1    0.005
Fc1ccc2[nH]cc(CN3CCC(F)(F)[C@@H](CCc4ccccc4)C3)c2c1    0.001

[A] COc1ccc2c(CN3CCC(F)(F)[C@H](CCc4ccc(F)cc4)C3)c[nH]c2c1
[B] Fc1ccc(CC[C@@H]2CN(Cc3c[nH]c4cc(Cl)ccc34)CCC2(F)F)cc1
[C] Fc1ccccc1CC[C@@H]1CN(Cc2c[nH]c3cc(Cl)ccc23)CCC1(F)F
[D] COc1ccc2c(CN3CCC(F)(F)[C@H](CCc4cccc(F)c4)C3)c[nH]c2c1
Ascending sort, fraction unbound. I would appreciate it if you listed the labels in the requested order.
B, D, C, A

----------
inhibition reference
Molecular target: D(3) dopamine receptor (Homo sapiens) (UniProt P35462)
Sequence (P35462 whole entry): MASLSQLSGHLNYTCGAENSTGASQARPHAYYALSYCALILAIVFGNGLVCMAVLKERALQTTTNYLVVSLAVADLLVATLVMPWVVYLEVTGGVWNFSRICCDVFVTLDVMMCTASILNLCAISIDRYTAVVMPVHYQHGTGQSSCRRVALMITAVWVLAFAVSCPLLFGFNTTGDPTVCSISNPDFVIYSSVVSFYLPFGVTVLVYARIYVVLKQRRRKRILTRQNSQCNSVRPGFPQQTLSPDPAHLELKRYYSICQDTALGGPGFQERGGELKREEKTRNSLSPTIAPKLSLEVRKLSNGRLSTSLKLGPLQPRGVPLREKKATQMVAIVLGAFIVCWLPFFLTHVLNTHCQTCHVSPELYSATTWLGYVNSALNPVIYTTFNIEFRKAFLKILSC
Assay: Displacement of [3H]Spiperone from recombinant human Dopamine D3 receptor expressed in CHO cell membranes at 10 uM after 120 mins relative to control

Worked cases, inhibition given:
Fc1ccc(CC[C@@H]2CN(Cc3c[nH]c4cc(Cl)ccc34)CCC2(F)F)cc1    < 50%
COc1ccc2[nH]cc(CN3CCC(F)(F)C(CCc4ccccc4)C3)c2c1 (racemic)    < 50%
Fc1ccc(CCC2CN(Cc3ncn4ccccc34)CCC2(F)F)cc1 (racemic)    < 50%
FC1(F)CCN(Cc2ncn3ccccc23)CC1CCc1ccccc1 (racemic)    < 50%
Cc1ccc(CN2CCC(F)(F)C(CCc3ccccc3)C2)cc1C (racemic)    < 20%

Given the entry Fc1cccc(CCC2CN(Cc3c[nH]c4cc(F)ccc34)CCC2(F)F)c1 (racemic) , what inhibition was observed with D(3) dopamine receptor (Homo sapiens) (UniProt P35462)?
< 50%

Given the entry Fc1ccc2c(CN3CCC(F)(F)[C@H](CCc4ccccc4F)C3)c[nH]c2c1 , what inhibition was observed with D(3) dopamine receptor (Homo sapiens) (UniProt P35462)?
65%

----------
Test: Unbound fraction in rat plasma by HPLC/MS based equilibrium dialysis method
Format: ADME, cell-free
ATTRIBUTE MEASURED: fraction unbound

[a] COc1ccc2c(CN3CCC(F)(F)[C@H](CCc4ccc(F)cc4)C3)c[nH]c2c1
[b] COc1ccc2c(CN3CCC(F)(F)[C@H](CCc4cccc(F)c4)C3)c[nH]c2c1
[c] Fc1ccc(CC[C@@H]2CN(Cc3c[nH]c4cc(Cl)ccc34)CCC2(F)F)cc1
[d] Fc1ccc2c(CN3CCC(F)(F)[C@H](CCc4ccccc4)C3)c[nH]c2c1
Task field, ranking: reported fraction unbound, descending order. I would appreciate it if you listed the labels in the requested order.
d, a, c, b

----------
Assay: Displacement of [3H]Spiperone from recombinant human Dopamine D4.4 receptor expressed in CHO-K1 cell membranes after 120 mins
ATTRIBUTE MEASURED: IC50 (nM)

Worked cases, IC50 given:
Fc1cccc(CCC2CN(Cc3c[nH]c4cc(F)ccc34)CCC2(F)F)c1 (racemic)    77
COc1ccc(CN2CCC(F)(F)C(CCc3ccccc3)C2)cc1F (racemic)    110
Fc1cccc(CCC2CN(Cc3c[nH]c4cc(Cl)ccc34)CCC2(F)F)c1 (racemic)    160
Clc1ccc(CN2CCO[C@H](CCc3ccccc3)C2)cc1    130

[1] Fc1ccccc1CCC1CN(Cc2c[nH]c3cc(Cl)ccc23)CCC1(F)F (racemic)
[2] Cc1ccc(CN2CCC(F)(F)C(CCc3ccccc3)C2)cc1C (racemic)
Could you point out whether the larger IC50 belongs to 1 or to 2 ? Write down the label attached to your selection.
2
(2: 300 nM, 1: 55 nM)

[A] FC1(F)CCN(Cc2c[nH]c3cc(Cl)ccc23)C[C@H]1CCc1ccccc1
[B] COc1ccccc1CCC1CN(Cc2c[nH]c3cc(F)ccc23)CCC1(F)F (racemic)
[C] COc1ccc(CCC2CN(Cc3c[nH]c4cc(Cl)ccc34)CCC2(F)F)cc1 (racemic)
Order the items by recorded IC50; the first position goes to the largest value. I would appreciate it if you listed the labels in the requested order.
C, B, A
(C: 640 nM, B: 170 nM, A: 64 nM)

[a] Fc1ccc(CCC2CN(Cc3ccc(Cl)cc3)CCC2(F)F)cc1 (racemic)
[b] Fc1ccccc1CCC1CN(Cc2ccc(Cl)cc2)CCC1(F)F (racemic)
[c] COc1ccc2c(CN3CCC(F)(F)[C@@H](CCc4ccc(F)cc4)C3)c[nH]c2c1
Ascending sort, IC50. I would appreciate it if you listed the labels in the requested order.
a, b, c

----------
Experiment: Displacement of [3H]Spiperone from recombinant human Dopamine D4.4 receptor expressed in CHO-K1 cell membranes after 120 mins
ATTRIBUTE MEASURED: IC50 (nM)

[1] Fc1ccc2c(CN3CCC(F)(F)[C@H](CCc4ccccc4F)C3)c[nH]c2c1
[2] Fc1ccc2c(CN3CCC(F)(F)[C@@H](CCc4ccccc4F)C3)c[nH]c2c1
Of 1 versus 2 , which is the one with smaller reported IC50? Write down the label attached to your selection.
1
(1: 14.1 nM, 2: 490 nM)

----------
Assay: Displacement of [3H]Spiperone from recombinant human Dopamine D4.4 receptor expressed in CHO-K1 cell membranes after 120 mins
ATTRIBUTE MEASURED: IC50 (nM)

Worked cases, IC50 given:
Fc1ccc(CC[C@@H]2CN(Cc3c[nH]c4cc(Cl)ccc34)CCC2(F)F)cc1    21
COc1ccc(CCC2CN(Cc3c[nH]c4cc(F)ccc34)CCC2(F)F)cc1 (racemic)    480

[A] Fc1ccccc1CCC1CN(Cc2ncn3ccccc23)CCC1(F)F (racemic)
[B] FC1(F)CCN(Cc2cccc3cc[nH]c23)CC1CCc1ccccc1 (racemic)
Of A versus B , which is the one with smaller reported IC50? Write down the label attached to your selection.
A
(A: 150 nM, B: 300 nM)

----------
Assay: Displacement of [3H]Spiperone from recombinant human Dopamine D4.4 receptor expressed in CHO-K1 cell membranes after 120 mins
ATTRIBUTE MEASURED: IC50 (nM)

COc1ccc(CN2CCO[C@H](COc3ccccc3)C2)cc1F    56

[1] CSc1ccc(CN2CCC(F)(F)C(CCc3ccccc3)C2)cc1 (racemic)
[2] Fc1ccc(CC[C@H]2CN(Cc3c[nH]c4cc(F)ccc34)CCC2(F)F)cc1
[3] COc1ccc2c(CN3CCC(F)(F)C(CCc4cccc(F)c4)C3)c[nH]c2c1 (racemic)
Ascending sort, IC50. I would appreciate it if you listed the labels in the requested order.
3, 2, 1
